applied-conditions: in methyl acetate, 298.15 K
measured-property: solubility (mole fraction)
Lab note: record just the number, no unit beside it.

Returns the measured solubility (mole fraction) for the input molecule. Input: CCC[C@@H]1C[C@@H](C(=O)N[C@@H]([C@H]2O[C@H](SC)[C@H](O)[C@H]3OC(C)(C)O[C@H]32)[C@H](C)Cl)N(C)C1
0.024

###

applied-conditions: in acetone, 288.15 K
measured-property: solubility (mole fraction)
Reply with just the number.

Please look up its solubility (mole fraction): CCC[C@@H]1C[C@@H](C(=O)N[C@@H]([C@H]2O[C@H](SC)[C@H](O)[C@H]3OC(C)(C)O[C@H]32)[C@H](C)Cl)N(C)C1
0.0195

###

applied-conditions: in isopropanol, 298.15 K
measured-property: solubility (mole fraction)
Number only, please.

solubility (mole fraction) for CCC[C@@H]1C[C@@H](C(=O)N[C@@H]([C@H]2O[C@H](SC)[C@H](O)[C@H]3OC(C)(C)O[C@H]32)[C@H](C)Cl)N(C)C1 ?
0.0266

###

applied-conditions: in n-butanol, 273.15 K
measured-property: solubility (mole fraction)
// keep it numeric: no unit symbol after the value

// query solubility (mole fraction) value for entry CCC[C@@H]1C[C@@H](C(=O)N[C@@H]([C@H]2O[C@H](SC)[C@H](O)[C@H]3OC(C)(C)O[C@H]32)[C@H](C)Cl)N(C)C1
0.0166

###

applied-conditions: in isopropanol, 278.15 K
measured-property: solubility (mole fraction)
Note: the reply should be a number with no unit written.

Item under review: CCC[C@@H]1C[C@@H](C(=O)N[C@@H]([C@H]2O[C@H](SC)[C@H](O)[C@H]3OC(C)(C)O[C@H]32)[C@H](C)Cl)N(C)C1 . Reported solubility (mole fraction)?
0.0124

###

applied-conditions: in isobutanol, 288.15 K
measured-property: solubility (mole fraction)
Form: value (number only, do not type unit).

Given CCC[C@@H]1C[C@@H](C(=O)N[C@@H]([C@H]2O[C@H](SC)[C@H](O)[C@H]3OC(C)(C)O[C@H]32)[C@H](C)Cl)N(C)C1 , state its recorded solubility (mole fraction).
0.0274

###

applied-conditions: in methanol, 308.15 K
measured-property: solubility (mole fraction)
The answer should be written as a number, with no unit following it.

Sample CCC[C@@H]1C[C@@H](C(=O)N[C@@H]([C@H]2O[C@H](SC)[C@H](O)[C@H]3OC(C)(C)O[C@H]32)[C@H](C)Cl)N(C)C1 — what was its solubility (mole fraction)?
0.0651

###

applied-conditions: in acetonitrile, 283.15 K
measured-property: solubility (mole fraction)
I only need the number, thanks.

# solubility (mole fraction) lookup, item CCC[C@@H]1C[C@@H](C(=O)N[C@@H]([C@H]2O[C@H](SC)[C@H](O)[C@H]3OC(C)(C)O[C@H]32)[C@H](C)Cl)N(C)C1
0.005

###

applied-conditions: in n-propyl acetate, 288.15 K
measured-property: solubility (mole fraction)
Field format: numeric only.

Form field: reported solubility (mole fraction) of CCC[C@@H]1C[C@@H](C(=O)N[C@@H]([C@H]2O[C@H](SC)[C@H](O)[C@H]3OC(C)(C)O[C@H]32)[C@H](C)Cl)N(C)C1
0.0124

###

applied-conditions: in methanol, 283.15 K
measured-property: solubility (mole fraction)

Requested field: solubility (mole fraction). Item: CCC[C@@H]1C[C@@H](C(=O)N[C@@H]([C@H]2O[C@H](SC)[C@H](O)[C@H]3OC(C)(C)O[C@H]32)[C@H](C)Cl)N(C)C1
0.0306
